Hello, the source for this data is paper PMC11022936, in case you need it.

Assay: Rat 3-month repeated-dose GLP toxicity study
Conditions: both, SD, in vivo, po, 125 mg/kg/day
Readout kind: NOAEL at 3 month

{"Smiles structure": "C[C@@H](N)c1cc(Cl)ccc1Cn1c(=S)[nH]c(=O)c2[nH]ccc21", "Readout kind": "NOAEL at 3 month", "Result": "125 mg/kg/day"}

* * *

Assay type: in vivo, rat
Settings: male, Han Wistar, rat, plasma, po, 40 mg/kg

{"Smiles structure": "C[C@@H](N)c1cc(Cl)ccc1Cn1c(=S)[nH]c(=O)c2[nH]ccc21", "Unit spec": "µM", "concentration at 3 h": 11.4}

* * *

Type: in vivo, rat
Conditions: male, Han Wistar, rat, plasma, po, 40 mg/kg
Readout kind: concentration at 1 h (µM)

{"Smiles structure": "C[C@@H](N)c1cc(Cl)ccc1Cn1c(=S)[nH]c(=O)c2[nH]ccc21", "Readout kind": "concentration at 1 h", "Unit spec": "µM", "Number": 18.3}
